Entries and their EC50
System: HIV-1 constructs containing mutant IN R263K
measurement_protocol: Single-round HIV-1 infectivity assay, IN mutant R263K
Type: cell-based
condition_info: Human immunodeficiency virus 1; Table 8; read-out: EC50 (nM, IN mutants) R263K
Give your result in nM as a bare value.

**Q:** Param item = CC(=O)OCCCc1cnc2c(c1)c(N)c(C(=O)NCc1ccc(F)cc1F)c(=O)n2O ; retrieve measured EC50.
**A:** 1.75

**Q:** Entry CC(=O)OCCCCCc1cnc2c(c1)c(NCCO)c(C(=O)NCc1ccc(F)cc1F)c(=O)n2O : reported EC50 = ?
**A:** 3.6

====

System: HIV-1 constructs containing mutant IN N155H
measurement_protocol: microbe, parasite or virus in culture
Format: cell-based
condition_info: Human immunodeficiency virus 1; Table 3; read-out: EC50 (nM, IN Mutants) N155H
Recorded EC50 values for a group of molecules are listed next.
Report the figure in nM without appending any unit label.

Please review the following examples before continuing.
>  <mol>
CN(C)c1c(C(=O)NCc2ccc(F)cc2F)c(=O)n(O)c2ncccc12

>  <result_units>
nM

>  <EC50>
2300

$$$$
>  <mol>
O=C(NCc1ccc(F)cc1F)c1cc2cccnc2n(O)c1=O

>  <result_units>
nM

>  <EC50>
134

$$$$
>  <mol>
O=C(NCc1ccc(F)cc1F)c1c(O)c2cccnc2n(O)c1=O

>  <result_units>
nM

>  <EC50>
30.5

$$$$
>  <mol>
COC(=O)[C@H](Nc1c(C(=O)NCc2ccc(F)cc2F)c(=O)n(O)c2ncccc12)c1ccccc1

>  <result_units>
nM

>  <EC50>
21.6

$$$$
>  <mol>
O=C(NCc1ccc(F)cc1F)c1c(NC2CCCCCC2)c2cccnc2n(O)c1=O

>  <result_units>
nM

>  <EC50>
13.7

$$$$
>  <mol>
O=C(NCc1ccc(F)cc1F)c1c(N2CCOCC2)c2cccnc2n(O)c1=O

>  <result_units>
nM

>  <EC50>
3730

$$$$
>  <mol>
CC(=O)OCCNc1c(C(=O)NCc2ccc(F)cc2F)c(=O)n(O)c2ncccc12

>  <result_units>
nM

>  <EC50>
3.1

$$$$
>  <mol>
O=C(NCc1ccc(F)c(Cl)c1)c1c(O)c2cccnc2n(O)c1=O

>  <result_units>
nM

>  <EC50>
148

$$$$

Kindly review the next molecule as well.
**Q:** Requested read-out EC50, target or system HIV-1 constructs containing mutant IN N155H, entry Nc1ccc(-c2ccc(Nc3c(C(=O)NCc4ccc(F)cc4F)c(=O)n(O)c4ncccc34)cc2)cc1
**A:** 423

====

Tested on: HIV-1 constructs containing mutant IN T66I
measurement_protocol: Single-round HIV-1 infectivity assay, IN mutant T66I
Type: cell-based
condition_info: Human immunodeficiency virus 1; Table 8; read-out: EC50 (nM, IN mutants) T66I
Protocol: Single-Round HIV-1 Infectivity Assay. Human embryonyl kidney cell culture cell line 293 was acquired from the American type Culture Collection (ATCC). […]. […] The virus-containing supernatants were then harvested, clarified by low-speed centrifugation, filtrated, and diluted for preparation in infection assays. […] KaleidaGraph (Synergy Software, Reading, Pa.) was used to perform regression analysis on the data. EC50 values were determined from the fit model. […]
Lab note - cut at 1 nM for EC50: MET if strictly below, NOT MET if not.

Please review the entries below; each comes with its answer.
>  <compound>
COC(=O)CCc1cnc2c(c1)c(N)c(C(=O)NCc1ccc(F)cc1F)c(=O)n2O

>  <tested_target>
HIV-1 constructs containing mutant IN T66I

>  <label>
MET

$$$$
>  <compound>
COc1cc2c(cc1Cc1cccc(Cl)c1F)c(=O)c(C(=O)O)cn2[C@H](CO)C(C)C [EVG, elvitegravir, reference compound]

>  <tested_target>
HIV-1 constructs containing mutant IN T66I

>  <label>
NOT MET

$$$$
>  <compound>
Nc1c(C(=O)NCc2ccc(F)cc2F)c(=O)n(O)c2ncc(CCCCCCO)cc12

>  <tested_target>
HIV-1 constructs containing mutant IN T66I

>  <label>
MET

$$$$
>  <compound>
Nc1c(C(=O)NCc2ccc(F)cc2F)c(=O)n(O)c2ncc(CCCO)cc12

>  <tested_target>
HIV-1 constructs containing mutant IN T66I

>  <label>
NOT MET

$$$$
>  <compound>
Nc1c(C(=O)NCc2ccc(F)cc2F)c(=O)n(O)c2ncc(CCCCCO)cc12

>  <tested_target>
HIV-1 constructs containing mutant IN T66I

>  <label>
MET

$$$$
>  <compound>
CC(=O)OCCCc1cnc2c(c1)c(N)c(C(=O)NCc1ccc(F)cc1F)c(=O)n2O

>  <tested_target>
HIV-1 constructs containing mutant IN T66I

>  <label>
MET

$$$$
>  <compound>
Cc1nnc(C(=O)NC(C)(C)c2nc(C(=O)NCc3ccc(F)cc3)c(O)c(=O)n2C)o1 [RAL, raltegravir, reference compound]

>  <tested_target>
HIV-1 constructs containing mutant IN T66I

>  <label>
NOT MET

$$$$
>  <compound>
C[C@@H]1CCO[C@H]2Cn3cc(C(=O)NCc4ccc(F)cc4F)c(=O)c(O)c3C(=O)N12 [DTG, dolutegravir, reference compound]

>  <tested_target>
HIV-1 constructs containing mutant IN T66I

>  <label>
MET

$$$$

**Q:** Would you kindly verify if EC50 of COC(=O)CCc1cnc2c(c1)c(NCCO)c(C(=O)NCc1ccc(F)cc1F)c(=O)n2O is strictly less than 1 nM?
**A:** MET

**Q:** Threshold test, EC50 < 1 nM: Nc1c(C(=O)NCc2ccc(F)cc2F)c(=O)n(O)c2ncccc12
**A:** MET

**Q:** State whether 1 nM exceeds EC50 recorded for O=C(NCc1ccc(F)cc1F)c1c(NCCO)c2cc(CCCCCO)cnc2n(O)c1=O .
**A:** NOT MET

**Q:** Is the reported EC50 for CC(=O)OCCCCCc1cnc2c(c1)c(NCCO)c(C(=O)NCc1ccc(F)cc1F)c(=O)n2O strictly below 1 nM?
**A:** NOT MET

**Q:** Input O=C(NCc1ccc(F)cc1F)c1c(O)c2c(CO)ccnc2n(O)c1=O ; condition: EC50 strictly below 1 nM. Does it hold?
**A:** NOT MET

**Q:** Take the compound Nc1c(C(=O)NCc2ccc(F)cc2F)c(=O)n(O)c2ncc(CCCCCCCCO)cc12 and say whether its EC50 is less than 1 nM.
**A:** NOT MET

====

tested_target: HIV-1 integrase (Human immunodeficiency virus type 1 group M subtype B, UniProt P12497)
measurement_protocol: biochemical
Format: biochemical
condition_info: read-out: IC50 (Strand Transfer)
Please use Criterion met for IC50 under 30 nM and Criterion not met for everything else, ties included.

Consider the following illustrative entries.
>  <mol>
CNc1c(C(=O)NCc2ccc(F)cc2F)c(=O)n(O)c2ncccc12

>  <label>
Criterion met

$$$$
>  <mol>
NCCNc1c(C(=O)NCc2ccc(F)cc2F)c(=O)n(O)c2ncccc12

>  <label>
Criterion not met

$$$$
>  <mol>
COC(=O)[C@H](CO)Nc1c(C(=O)NCc2ccc(F)cc2F)c(=O)n(O)c2ncccc12

>  <label>
Criterion met

$$$$
>  <mol>
O=C(NCc1ccc(F)cc1F)c1c(NCCc2ccccc2)c2cccnc2n(O)c1=O

>  <label>
Criterion not met

$$$$
>  <mol>
CCCCCNc1c(C(=O)NCc2ccc(F)cc2F)c(=O)n(O)c2ncccc12

>  <label>
Criterion met

$$$$
>  <mol>
O=C(NCc1ccc(F)cc1F)c1c(Nc2ccccc2)c2cccnc2n(O)c1=O

>  <label>
Criterion met

$$$$

**Q:** Is 30 nM strictly greater than the molecule's reported IC50? molecule: CC(C)Nc1c(C(=O)NCc2ccc(F)cc2F)c(=O)n(O)c2ncccc12
**A:** Criterion met

**Q:** Dear colleague, could you confirm whether IC50 of COC(=O)[C@@H](CO)Nc1c(C(=O)NCc2ccc(F)cc2F)c(=O)n(O)c2ncccc12 falls below 30 nM? Thanks.
**A:** Criterion met

====

tested_target: HIV-1 integrase (Human immunodeficiency virus type 1 group M subtype B, UniProt P12497)
measurement_protocol: biochemical
Assay type: biochemical
condition_info: Table 4; strand transfer; read-out: IC50 (Strand Transfer)
pIC50: −log10 of the molar value.
Decide using pIC50: a value greater than or equal to 6 is TRUE, a smaller one is FALSE.

Record excerpt, results attached:
>  <mol>
O=C(NCc1ccc(F)cc1F)c1c(O)c2ccc(N3CCOCC3)nc2n(O)c1=O

>  <label>
FALSE

$$$$
>  <mol>
N#Cc1ccc(-c2ccc(Nc3c(C(=O)NCc4ccc(F)cc4F)c(=O)n(O)c4ncccc34)cc2)cc1

>  <label>
TRUE

$$$$
>  <mol>
CC(=O)OCCNc1c(C(=O)NCc2ccc(F)cc2F)c(=O)n(O)c2ncccc12

>  <label>
TRUE

$$$$
>  <mol>
COC(=O)CNc1c(C(=O)NCc2ccc(F)cc2F)c(=O)n(O)c2nc(N3CCCCC3)ccc12

>  <label>
FALSE

$$$$
>  <mol>
CCOC(=O)[C@@H]1CCCN1c1c(C(=O)NCc2ccc(F)cc2F)c(=O)n(O)c2ncccc12

>  <label>
TRUE

$$$$

**Q:** Decide: is the reported value of pIC50 for CN(C)c1c(C(=O)NCc2ccc(F)cc2F)c(=O)n(O)c2ncccc12 equal to or greater than 6?
**A:** TRUE

**Q:** Entry O=C(NCc1ccc(F)cc1F)c1c(NCCO)c2cccnc2n(O)c1=O : is its pIC50 no less than 6?
**A:** TRUE

**Q:** Dear colleague, could you confirm whether COc1ccc2c(O)c(C(=O)NCc3ccc(F)cc3F)c(=O)n(O)c2n1 has pIC50 at or above 6?
**A:** TRUE

**Q:** Identify whether the reported pIC50 of the following molecule is 6 or greater: O=C(NCc1ccc(F)cc1F)c1c(NC2CCCCCC2)c2cccnc2n(O)c1=O
**A:** TRUE

**Q:** Record O=C(NCc1ccc(F)cc1F)c1c(N2CCOCC2)c2cccnc2n(O)c1=O ; criterion: pIC50 no lower than 6. Met?
**A:** TRUE

**Q:** Does the reported pIC50 for Nc1c(C(=O)NCc2ccc(F)cc2F)c(=O)n(O)c2nc(N3CCCCC3)ccc12 fall at or above the 6 mark?
**A:** FALSE

**Q:** Could you tell me if the measured pIC50 of COC(=O)CNc1c(C(=O)NCc2ccc(F)cc2F)c(=O)n(O)c2nc(N3CCOCC3)ccc12 reaches 6 or more?
**A:** FALSE

**Q:** Would you say NCc1ccc(-c2ccc(Nc3c(C(=O)NCc4ccc(F)cc4F)c(=O)n(O)c4ncccc34)cc2)cc1 shows pIC50 at minimum 6?
**A:** FALSE

**Q:** Check the entry O=C(NCc1ccc(F)cc1F)c1c(O)c2ccc(N3CCCCC3)nc2n(O)c1=O : does pIC50 equal or exceed 6?
**A:** FALSE

**Q:** For this molecule, is measured pIC50 6 or higher? COC(=O)CNc1c(C(=O)NCc2ccc(F)cc2F)c(=O)n(O)c2nc(OC)ccc12
**A:** TRUE

**Q:** Could you verify whether the entry Nc1c(C(=O)NCc2ccc(F)cc2F)c(=O)n(O)c2ncccc12 shows pIC50 of no less than 6?
**A:** TRUE

**Q:** Could you verify whether the entry COc1ccc2c(N)c(C(=O)NCc3ccc(F)cc3F)c(=O)n(O)c2n1 shows pIC50 of no less than 6?
**A:** TRUE
